# assayed system: Muscarinic acetylcholine receptor M5 (Homo sapiens)
# method summary: human M5 muscarinic receptor antagonists, primary screen, CHO cells, Fluo-8 calcium fluorescence (AID 624040);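 note: 0% = acetylcholine EC80 with DMSO and 100% = DMSO without agonist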
# condition context: CHO-hM5 cells, ACh EC80, at 3 µM, active compounds read high
Among all 360,000 compounds or so, about 2,100 (0.58%) were called active. The full list was thinned out, with actives kept by preference.
result type: inhibition (%)
Output spec: scalar in %, unitless text.

Prompt line: Field: inhibition (Muscarinic acetylcholine receptor M5 (Homo sapiens)). Entry: COc1ccc(C2C=C(C)Oc3c2c(=O)oc2ccccc32)cc1OC (stereo not drawn)
Response line: 2.6

Prompt line: Field: inhibition (Muscarinic acetylcholine receptor M5 (Homo sapiens)). Entry: CC1CCCCN1Cc1cccnc1 (stereo not drawn)
Response line: 12.5

Prompt line: Field: inhibition (Muscarinic acetylcholine receptor M5 (Homo sapiens)). Entry: O=C(Cc1ccccc1)N1CCN(C2CCCCCC2)CC1
Response line: 0.09
